Test system: A2780
Test: Cell proliferation Ex.3
Type: cell-based
Conditions: Homo sapiens, A2780, 72 h
PROPERTY_NAME: IC50

>>> df
                                   compound  tested_system  observed_measurement
0  C#C[C@]1(CO)O[C@@H](n2cc(F)c(N)nc2=O)C[C@@H]1O [compound 9]          A2780               > 10 µM

###

System: K-562
Experiment: Cell proliferation Ex.3
Type: cell-based
Conditions: Homo sapiens, K562; K-562, 168 h
pIC50: −log10 of the molar value.
PROPERTY_NAME: pIC50

>>> print(df.to_string())
                            smiles_notation  observed_measurement
0  C#C[C@]1(CO)O[C@@H](n2cc(F)c(N)nc2=O)C[C@@H]1O                < 5.00

###

System: ACHN
Experiment: Cell proliferation Ex.3
Assay type: cell-based
Conditions: Homo sapiens, 168 h
PROPERTY_NAME: IC50 (nM)

In [3]: df
Out[3]:
                            smiles_notation  observed_measurement
0  C#C[C@]1(CO)O[C@@H](n2cc(F)c(N)nc2=O)C[C@@H]1O                   940

###

System: LnCap
Assay: Cell proliferation CellTiterGlo Ex.2
Assay type: cell-based
Conditions: Homo sapiens; LnCap (Prostate), 72 h
PROPERTY_NAME: IC50

In [3]: df
Out[3]:
                            smiles_notation  observed_measurement
0  C#C[C@]1(CO)O[C@@H](n2cnc3c(=O)[nH]c(N)nc32)C[C@@H]1O               > 10 µM

###

Tested on: cancer cell lines
Test: Cancer cell proliferation activity of representative nucleosides, CellTiterGlo 72 h (Example 7, Tables 8 and 9)
Format: cell-based
Conditions: Homo sapiens, A204, 72 h, A204, muscle, 72 h
# log10 IC50 annotations
PROPERTY_NAME: log10 IC50 (log10 of the value in nM)

>>> print(df.to_string())
                            smiles_notation      tested_system  observed_measurement
0  C[C@]1(CO)O[C@@H](n2ccc(N)nc2=O)C[C@@H]1O  cancer cell lines                  1.30
1  C#C[C@]1(CO)O[C@@H](n2ccc(N)nc2=O)C[C@@H]1O  cancer cell lines                  2.26
2  N#C[C@]1(CO)O[C@@H](n2ccc(N)nc2=O)C[C@@H]1O  cancer cell lines                  1.48
3  C#C[C@]1(CO)O[C@@H](n2cnc3c(=O)[nH]c(N)nc32)C[C@@H]1O  cancer cell lines                  2.43
4  CC[C@]1(CO)O[C@@H](n2ccc(N)nc2=O)C[C@@H]1O  cancer cell lines                  2.43
5  C#C[C@]1(CO)O[C@@H](n2cc(F)c(N)nc2=O)C[C@@H]1O  cancer cell lines                  3.99
6  CC[C@]1(CO)O[C@@H](n2cnc3c(N)nc(N)nc32)C[C@@H]1O  cancer cell lines                  3.20
